The values you see were collected from patent US20120321591A1.

- targetUnderTest: T1, recombinant human VEGF165 (human, UniProt P15692-4 27-191)
- T1 construct: also called rhVEGF165
- T1 sequence (P15692 other isoform, or with tags, fused parts or gaps limits assumed): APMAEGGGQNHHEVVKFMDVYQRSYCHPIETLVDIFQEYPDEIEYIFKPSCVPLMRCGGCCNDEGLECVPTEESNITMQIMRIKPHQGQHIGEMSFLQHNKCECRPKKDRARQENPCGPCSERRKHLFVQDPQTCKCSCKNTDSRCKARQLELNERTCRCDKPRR
- assayComment: competition ELISA: VEGF165 binding to coated VEGFR2/Fc
Bridges are numbered along the chain shown (N, C = ends). [ ]: non-standard residue; d: D form.
measuredParameter: pIC50
Give bare numbers, as −log10 of the molar value.

// known answers, use as guide
>  <binder>
Ac-VEPNCDIHVMWVWECFERL[dL]K(Ac)-NH2 (disulfide 5-15) [[VEGF-Peptide] SEQ ID NO:60]

>  <pIC50>
7.60

$$$$
>  <binder>
Ac-VEPNCDIHVMWVWECFERLYGWG-NH2 (disulfide 5-15 (inferred)) [[VEGF-Peptide] SEQ ID NO:42]

>  <pIC50>
7.17

$$$$
>  <binder>
Ac-VEPNCDIHVMWVWECFERLLK(Ac)-NH2 (disulfide 5-15) [[VEGF-Peptide] SEQ ID NO:68]

>  <pIC50>
8.00

$$$$
>  <binder>
Ac-VEPNCDIHVMWVWECFERLYGIL-NH2 (disulfide 5-15 (inferred)) [[VEGF-Peptide] SEQ ID NO:50]

>  <pIC50>
7.46

$$$$

Pending binder:
Item Ac-VEPNCDIHVMWVWECFERLYGGF-NH2 (disulfide 5-15 (inferred)) [[VEGF-Peptide] SEQ ID NO:56] has what recorded pIC50? 7.58
